# Tested on: erythropoiesis of mice
# method.notes: Effects of EPO mimetic peptide derivatives on mice, sc injection on three consecutive days, peripheral blood cell and reticulocyte counts
# Type: in vivo, Kunming mice
# test.context: mouse, 4.5 mg/kg, d1-3
*1 amine or outer side, *2 acyl side, *3 side chain or, on linkers, in order; H or OH if unused. Bridges are numbered along the chain shown (N, C = ends). Roman numbers before positions name the chains, in order. [ ]: non-standard residue; d: D form. ξ: configuration not given here. X1 = NCCNC(=O)OC(CCC(=O)[*:1])CCC(=O)[*:2]; Nle = CCCC[C@H](N)C(=O)O; ξK = NCCCCC(N)C(=O)O; βAla = NCCC(=O)O
reported.property: Platelet

>>> result("I: Ac-GGTYSCHFGSLTWVCRPQRG[βAla][ξK]-NH2 / II: Ac-GGTYSCHFGSLTWVCRPQRG[βAla][ξK]-NH2 (disulfide I:6-I:15, II:6-II:15; linker I:22-II:22 via X1) [HH-EPO-007]")
"2082.1 ± 863.9 ×10^3/μL"
>>> result("I: Ac-GGTYSCHFGALTWVCRPQRG[βAla][ξK]-NH2 / II: Ac-GGTYSCHFGALTWVCRPQRG[βAla][ξK]-NH2 (disulfide I:6-I:15, II:6-II:15; linker I:22-II:22 via X1) [HH-EPO-008]")
"1685.5 ± 351.3 ×10^3/μL"
>>> result("I: Ac-GGTYSCHFGPLTWVCRPQRG[βAla][ξK]-NH2 / II: Ac-GGTYSCHFGPLTWVCRPQRG[βAla][ξK]-NH2 (disulfide I:6-I:15, II:6-II:15; linker I:22-II:22 via X1) [HH-EPO-005]")
"1957.8 ± 349.5 ×10^3/μL"
>>> result("I: Ac-GGTYSC[Nle]FGPLTWVCRPQRG[βAla][ξK]-NH2 / II: Ac-GGTYSC[Nle]FGPLTWVCRPQRG[βAla][ξK]-NH2 (disulfide I:6-I:15, II:6-II:15; linker I:22-II:22 via X1) [HH-EPO-006]")
"1087.8 ± 118.5 ×10^3/μL"
